assay: Tryptophan fluorescent binding assay, POPC vesicles; details: 50 μM peptide, PBS pH 7.4, lipid per peptide
Measure name: Lipid Concentration-induced 50% Peptide Binding, POPC Vesicle (L/P)

Substance smiles	Value
CC(C)C[C@H](NC(=O)CN)C(=O)N[C@@H](CC(C)C)C(=O)N[C@@H](CCCCN)C(=O)N[C@@H](CC(C)C)C(=O)N[C@@H](CC(C)C)C(=O)N[C@@H](CCC(=O)O)C(=O)N[C@@H](CC(C)C)C(=O)N[C@@H](CC(C)C)C(=O)N[C@@H](CC(C)C)C(=O)N[C@@H](Cc1c[nH]cn1)C(=O)N[C@@H](C)C(=O)N[C@@H](C)C(=O)NCC(=O)N[C@@H](Cc1c[nH]c2ccccc12)C(N)=O	1.00
CC(C)C[C@H](NC(=O)CN)C(=O)N[C@@H](CC(C)C)C(=O)N[C@@H](CCCCN)C(=O)N[C@@H](CC(C)C)C(=O)N[C@@H](CC(C)C)C(=O)N[C@@H](CCCCN)C(=O)N[C@@H](CC(C)C)C(=O)N[C@@H](CC(C)C)C(=O)N[C@@H](CC(C)C)C(=O)N[C@@H](Cc1c[nH]cn1)C(=O)N[C@@H](C)C(=O)N[C@@H](C)C(=O)NCC(=O)N[C@@H](Cc1c[nH]c2ccccc12)C(N)=O	0.83

====

assay: ANTS/DPX liposome leakage assay, POPC vesicles; assay type: biochemical; settings: 0.5 mM vesicles, pH 4.8, lipid per peptide
Measure name: Peptide Concentration-induced 50% ANTS/DPX leakage at pH 4.8, POPC Vesicle (L/P)

Substance smiles	Value
CC(C)C[C@H](NC(=O)CN)C(=O)N[C@@H](CC(C)C)C(=O)N[C@@H](CCCCN)C(=O)N[C@@H](CC(C)C)C(=O)N[C@@H](CC(C)C)C(=O)N[C@@H](Cc1c[nH]cn1)C(=O)N[C@@H](CC(C)C)C(=O)N[C@@H](CC(C)C)C(=O)N[C@@H](CC(C)C)C(=O)N[C@@H](CCC(=O)O)C(=O)N[C@@H](C)C(=O)N[C@@H](C)C(=O)NCC(=O)N[C@@H](Cc1c[nH]c2ccccc12)C(N)=O	183

====

assay: Tryptophan fluorescent binding assay, POPC vesicles; conditions: 50 μM peptide, PBS pH 7.4, lipid per peptide
Each item that follows carries a reported Lipid Concentration-induced 50% Peptide Binding, POPC Vesicle.
Measure name: Lipid Concentration-induced 50% Peptide Binding, POPC Vesicle

Substance smiles	Value
CC(C)C[C@H](NC(=O)CN)C(=O)N[C@@H](CC(C)C)C(=O)N[C@@H](Cc1c[nH]cn1)C(=O)N[C@@H](CC(C)C)C(=O)N[C@@H](CC(C)C)C(=O)N[C@@H](Cc1c[nH]cn1)C(=O)N[C@@H](CC(C)C)C(=O)N[C@@H](CC(C)C)C(=O)N[C@@H](CC(C)C)C(=O)N[C@@H](Cc1c[nH]cn1)C(=O)N[C@@H](C)C(=O)N[C@@H](C)C(=O)NCC(=O)N[C@@H](Cc1c[nH]c2ccccc12)C(N)=O	0.46 L/P
CC(C)C[C@H](NC(=O)CN)C(=O)N[C@@H](CC(C)C)C(=O)N[C@@H](CCCCN)C(=O)N[C@@H](CC(C)C)C(=O)N[C@@H](CC(C)C)C(=O)N[C@@H](CCC(=O)O)C(=O)N[C@@H](CC(C)C)C(=O)N[C@@H](CC(C)C)C(=O)N[C@@H](CC(C)C)C(=O)N[C@@H](CCC(=O)O)C(=O)N[C@@H](C)C(=O)N[C@@H](C)C(=O)NCC(=O)N[C@@H](Cc1c[nH]c2ccccc12)C(N)=O	0.20 L/P
CC(C)C[C@H](NC(=O)CN)C(=O)N[C@@H](CC(C)C)C(=O)N[C@@H](CC(=O)O)C(=O)N[C@@H](CC(C)C)C(=O)N[C@@H](CC(C)C)C(=O)N[C@@H](CCCCN)C(=O)N[C@@H](CC(C)C)C(=O)N[C@@H](CC(C)C)C(=O)N[C@@H](CC(C)C)C(=O)N[C@@H](Cc1c[nH]cn1)C(=O)N[C@@H](C)C(=O)N[C@@H](C)C(=O)NCC(=O)N[C@@H](Cc1c[nH]c2ccccc12)C(N)=O	10.00 L/P

====

assay: Tryptophan fluorescent binding assay, 3POPC/1POPG vesicles; settings: 50 μM peptide, PBS pH 7.4, lipid per peptide
Measure name: Lipid Concentration-induced 50% Peptide Binding, 3POPC/1POPG Vesicle

Substance smiles	Value
CC(C)C[C@H](NC(=O)CN)C(=O)N[C@@H](CC(C)C)C(=O)N[C@@H](CC(=O)O)C(=O)N[C@@H](CC(C)C)C(=O)N[C@@H](CC(C)C)C(=O)N[C@@H](CCCCN)C(=O)N[C@@H](CC(C)C)C(=O)N[C@@H](CC(C)C)C(=O)N[C@@H](CC(C)C)C(=O)N[C@@H](CCCCN)C(=O)N[C@@H](C)C(=O)N[C@@H](C)C(=O)NCC(=O)N[C@@H](Cc1c[nH]c2ccccc12)C(N)=O	6.88 L/P
CC(C)C[C@H](NC(=O)CN)C(=O)N[C@@H](CC(C)C)C(=O)N[C@@H](CC(=O)O)C(=O)N[C@@H](CC(C)C)C(=O)N[C@@H](CC(C)C)C(=O)N[C@@H](CCCCN)C(=O)N[C@@H](CC(C)C)C(=O)N[C@@H](CC(C)C)C(=O)N[C@@H](CC(C)C)C(=O)N[C@@H](CCC(=O)O)C(=O)N[C@@H](C)C(=O)N[C@@H](C)C(=O)NCC(=O)N[C@@H](Cc1c[nH]c2ccccc12)C(N)=O	0.46 L/P
CC(C)C[C@H](NC(=O)CN)C(=O)N[C@@H](CC(C)C)C(=O)N[C@@H](CCC(=O)O)C(=O)N[C@@H](CC(C)C)C(=O)N[C@@H](CC(C)C)C(=O)N[C@@H](Cc1c[nH]cn1)C(=O)N[C@@H](CC(C)C)C(=O)N[C@@H](CC(C)C)C(=O)N[C@@H](CC(C)C)C(=O)N[C@@H](CCC(=O)O)C(=O)N[C@@H](C)C(=O)N[C@@H](C)C(=O)NCC(=O)N[C@@H](Cc1c[nH]c2ccccc12)C(N)=O	0.44 L/P

====

assay: Tryptophan fluorescent binding assay, POPC vesicles; details: 50 μM peptide, PBS pH 7.4, lipid per peptide
Measure name: Lipid Concentration-induced 50% Peptide Binding, POPC Vesicle (L/P)

Substance smiles	Value
CC(C)C[C@H](NC(=O)CN)C(=O)N[C@@H](CC(C)C)C(=O)N[C@@H](Cc1c[nH]cn1)C(=O)N[C@@H](CC(C)C)C(=O)N[C@@H](CC(C)C)C(=O)N[C@@H](CCC(=O)O)C(=O)N[C@@H](CC(C)C)C(=O)N[C@@H](CC(C)C)C(=O)N[C@@H](CC(C)C)C(=O)N[C@@H](Cc1c[nH]cn1)C(=O)N[C@@H](C)C(=O)N[C@@H](C)C(=O)NCC(=O)N[C@@H](Cc1c[nH]c2ccccc12)C(N)=O	0.88
CC(C)C[C@H](NC(=O)CN)C(=O)N[C@@H](CC(C)C)C(=O)N[C@@H](Cc1c[nH]cn1)C(=O)N[C@@H](CC(C)C)C(=O)N[C@@H](CC(C)C)C(=O)N[C@@H](CCCCN)C(=O)N[C@@H](CC(C)C)C(=O)N[C@@H](CC(C)C)C(=O)N[C@@H](CC(C)C)C(=O)N[C@@H](CCC(=O)O)C(=O)N[C@@H](C)C(=O)N[C@@H](C)C(=O)NCC(=O)N[C@@H](Cc1c[nH]c2ccccc12)C(N)=O	0.75
CC(C)C[C@H](NC(=O)CN)C(=O)N[C@@H](CC(C)C)C(=O)N[C@@H](CC(=O)O)C(=O)N[C@@H](CC(C)C)C(=O)N[C@@H](CC(C)C)C(=O)N[C@@H](Cc1c[nH]cn1)C(=O)N[C@@H](CC(C)C)C(=O)N[C@@H](CC(C)C)C(=O)N[C@@H](CC(C)C)C(=O)N[C@@H](CCC(=O)O)C(=O)N[C@@H](C)C(=O)N[C@@H](C)C(=O)NCC(=O)N[C@@H](Cc1c[nH]c2ccccc12)C(N)=O	1.00
CC(C)C[C@H](NC(=O)CN)C(=O)N[C@@H](CC(C)C)C(=O)N[C@@H](CC(=O)O)C(=O)N[C@@H](CC(C)C)C(=O)N[C@@H](CC(C)C)C(=O)N[C@@H](CCC(=O)O)C(=O)N[C@@H](CC(C)C)C(=O)N[C@@H](CC(C)C)C(=O)N[C@@H](CC(C)C)C(=O)N[C@@H](CCCCN)C(=O)N[C@@H](C)C(=O)N[C@@H](C)C(=O)NCC(=O)N[C@@H](Cc1c[nH]c2ccccc12)C(N)=O	1.50
CC(C)C[C@H](NC(=O)CN)C(=O)N[C@@H](CC(C)C)C(=O)N[C@@H](CC(=O)O)C(=O)N[C@@H](CC(C)C)C(=O)N[C@@H](CC(C)C)C(=O)N[C@@H](CCC(=O)O)C(=O)N[C@@H](CC(C)C)C(=O)N[C@@H](CC(C)C)C(=O)N[C@@H](CC(C)C)C(=O)N[C@@H](Cc1c[nH]cn1)C(=O)N[C@@H](C)C(=O)N[C@@H](C)C(=O)NCC(=O)N[C@@H](Cc1c[nH]c2ccccc12)C(N)=O	0.75
